Tested on: spores of ATCC 630 strain
Assay: Inhibition of germination of C. difficile spores (MIC), strain ATCC 630
Format: cell-based
Details: Clostridioides difficile, ATCC630, 1 h; strain 630; sodium taurocholate as germinant, BHIS medium, 37° C., OD580 for 60 min; read-out: MIC (minimum concentration that completely inhibits spore germination)
Description: According to a method disclosed in “The Journal of Infectious Diseases. 2013; 207: 1498-504”, spores of ATCC BBA1870, ATCC 43255 and ATCC 630 strains were obtained by culture and purification, and stored at 4° C. Spore preparation: the C. difficile spores stored at 4° C. were heat-activated for 30 min at 65° C., centrifuged at 9,400 g for 2 min, and washed three times to remove any self-germinating spores. […]
Field: MIC. Provide a value for each of the compounds that follow.
Give bare numbers, in µM.

CC(C)C(NC(=O)C[C@@H](C)[C@H]1CC[C@H]2[C@@H]3[C@H](O)C[C@@H]4CC(=O)CC[C@]4(C)[C@H]3CC[C@]12C)c1cccs1 (some centres unmarked)
2
CC[C@@H](NC(=O)C[C@@H](C)[C@H]1CC[C@H]2[C@@H]3[C@H](O)CC4=CC(=O)CC[C@]4(C)[C@H]3CC[C@]12C)c1ccc(Cl)s1
0.25
CC[C@@H](NC(=O)C[C@@H](C)[C@H]1CC[C@H]2[C@@H]3C(=O)C[C@@H]4CC(=O)CC[C@]4(C)[C@H]3CC[C@]12C)c1cccs1
0.25

For the next question, use this compound.
Lab note: measured MIC of CC[C@@H](NC(=O)C[C@@H](C)[C@H]1CC[C@H]2[C@@H]3[C@H](OC(C)=O)C[C@@H]4CC(=O)CC[C@]4(C)[C@H]3CC[C@]12C)c1ccc(Cl)s1 was 0.5

* * *

I'd appreciate it if you could supply MIC values for the items below.
Test system: spores of ATCC BBA1870 strain
Assay: Inhibition of germination of C. difficile spores (MIC), strain ATCC BBA1870
Format: cell-based
Settings: Clostridioides difficile, ATCCBBA1870STRAIN, 1 h; strain 1870; sodium taurocholate as germinant, BHIS medium, 37° C., OD580 for 60 min; read-out: MIC (minimum concentration that completely inhibits spore germination)
Numbers only, in µM.

Study these solved cases before continuing.
C[C@H](CC(=O)NC(c1cccs1)C(C)(C)C)[C@H]1CC[C@H]2[C@@H]3C(=O)C[C@@H]4CC(=O)CC[C@]4(C)[C@H]3CC[C@]12C (stereo partly drawn) [Compound I-43]
64
CC(C)[C@@H](NC(=O)C[C@@H](C)[C@H]1CC[C@H]2[C@@H]3[C@H](O)CC4=CC(=O)C=C[C@]4(C)[C@H]3CC[C@]12C)c1ccc(Cl)s1 [Compound I-162-2]
0.5

Proceeding to the next compound to report its MIC.
Value of MIC reported for the compound C[C@H](CC(=O)NCc1cccs1)[C@H]1CC[C@H]2[C@@H]3[C@@H](O)C[C@@H]4C[C@H](O)CC[C@]4(C)[C@H]3CC[C@]12C [Compound I-12] is 128

* * *

Tested on: spores of ATCC BBA1870 strain
Experiment: Inhibition of germination of C. difficile spores (MIC), strain ATCC BBA1870
Format: cell-based
Conditions: Clostridioides difficile, ATCCBBA1870STRAIN, 1 h; strain 1870; sodium taurocholate as germinant, BHIS medium, 37° C., OD580 for 60 min; read-out: MIC (minimum concentration that completely inhibits spore germination)
parameter: MIC

Known results for compounds:
C[C@H](CC(=O)NCc1cccs1)[C@H]1CC[C@H]2[C@@H]3C(=O)C[C@@H]4C[C@H](O)CC[C@]4(C)[C@H]3C[C@H](O)[C@]12C [Compound I-20]
64 µM
CC(C)[C@H](NC(=O)C[C@@H](C)[C@H]1CC[C@H]2[C@@H]3[C@H](O)C[C@@H]4CC(=O)CC[C@]4(C)[C@H]3CC[C@]12C)c1cccs1 [Compound I-135]
> 256 µM
CC[C@@H](NC(=O)C[C@@H](C)[C@H]1CC[C@H]2[C@@H]3[C@H](OC(=O)CCCCCCC(=O)O)C[C@@H]4CC(=O)CC[C@]4(C)[C@H]3CC[C@]12C)c1ccc(Cl)s1 [Compound I-187]
0.125 µM
CC(C)[C@@H](NC(=O)C[C@@H](C)[C@H]1CC[C@H]2[C@@H]3[C@H](O)C[C@@H]4CC(=O)CC[C@]4(C)[C@H]3C[C@H](O)[C@]12C)c1ccc(Br)s1 [Compound I-166]
64 µM

Next, consider the following compound.
CCC(NC(=O)C[C@@H](C)[C@H]1CC[C@H]2[C@@H]3[C@H](O)[C@H](O)[C@@H]4C[C@H](O)CC[C@]4(C)[C@H]3CC[C@]12C)c1cccs1 (some centres unmarked) [Compound I-116] tested on spores of ATCC BBA1870 strain gave MIC: 16 µM

* * *

Test system: spores of ATCC BBA1870 strain
Experiment: Inhibition of germination of C. difficile spores (MIC), strain ATCC BBA1870
Type: cell-based
Details: Clostridioides difficile, ATCCBBA1870STRAIN, 1 h; strain 1870; sodium taurocholate as germinant, BHIS medium, 37° C., OD580 for 60 min; read-out: MIC (minimum concentration that completely inhibits spore germination)
parameter: MIC

A selection of reference data follows.
CC[C@@H](NC(=O)C[C@@H](C)[C@H]1CC[C@H]2[C@@H]3CC[C@@H]4C[C@H](O)CC[C@]4(C)[C@H]3CC[C@]12C)c1ccc(Br)s1
32 µM
CC[C@@H](NC(=O)C[C@@H](C)[C@H]1CC[C@H]2[C@@H]3C(=O)C[C@@H]4CC(=O)CC[C@]4(C)[C@H]3CC[C@]12C)c1cccs1
0.25 µM
C[C@H](CC(=O)NC(c1cccs1)C1CC1)[C@H]1CC[C@H]2[C@@H]3[C@H](O)C[C@@H]4CC(=O)CC[C@]4(C)[C@H]3CC[C@]12C (stereo partly shown)
0.5 µM
CC(C)[C@@H](NC(=O)C[C@@H](C)[C@H]1CC[C@H]2[C@@H]3C(=O)C[C@@H]4C[C@H](O)CC[C@]4(C)[C@H]3CC[C@]12C)c1ccc(Cl)s1
2 µM
CCCCCCCC(=O)O[C@@H]1C[C@@H]2CC(=O)CC[C@]2(C)[C@H]2CC[C@]3(C)[C@@H]([C@H](C)CC(=O)N[C@H](CC)c4ccc(Cl)s4)CC[C@H]3[C@H]12
256 µM

For each of the compounds below, state MIC.
1. C[C@H](CC(=O)NC(CC(=O)O)c1ccccc1)[C@H]1CC[C@H]2[C@@H]3C(=O)C[C@@H]4CC(=O)CC[C@]4(C)[C@H]3CC[C@]12C (stereo partly shown)
2. C[C@H](CC(=O)NC(c1cccs1)C1CC1)[C@H]1CC[C@H]2[C@@H]3C(=O)C[C@@H]4CC(=O)CC[C@]4(C)[C@H]3CC[C@]12C (stereo partly shown)
3. CC[C@@H](NC(=O)C[C@@H](C)[C@H]1CC[C@H]2[C@@H]3[C@H](N)C[C@@H]4CC(=O)CC[C@]4(C)[C@H]3CC[C@]12C)c1ccc(Cl)s1
4. CCCCCC(NC(=O)C[C@@H](C)[C@H]1CC[C@H]2[C@@H]3C(=O)C[C@@H]4CC(=O)CC[C@]4(C)[C@H]3CC[C@]12C)c1cccs1 (stereo partly shown)
5. CC[C@@H](NC(=O)C[C@@H](C)[C@H]1CC[C@H]2[C@@H]3[C@H](O)C[C@@H]4C[C@H](OC)CC[C@]4(C)[C@H]3CC[C@]12C)c1ccc(Cl)s1

Output:
> 256 µM
0.5 µM
32 µM
256 µM
256 µM

* * *

System: spores of ATCC 630 strain
Test: Inhibition of germination of C. difficile spores (MIC), strain ATCC 630
Assay type: cell-based
Details: Clostridioides difficile, ATCC630, 1 h; strain 630; sodium taurocholate as germinant, BHIS medium, 37° C., OD580 for 60 min; read-out: MIC (minimum concentration that completely inhibits spore germination)
parameter: MIC (µM)
One number for each entry, in µM.

The examples below pair each entry with its known result.
CO[C@@H]1CC[C@@]2(C)[C@H](CC(=O)[C@@H]3[C@@H]2CC[C@]2(C)[C@@H]([C@H](C)CC(=O)N[C@@H](c4ccc(Cl)s4)C(C)C)CC[C@@H]32)C1
128
CC(C)[C@@H](NC(=O)C[C@@H](C)[C@H]1CC[C@H]2[C@@H]3[C@H](O)C[C@@H]4CC(=O)CC[C@]4(C)[C@H]3CC[C@]12C)c1ccc(Br)s1
0.25
CC(C)[C@H](NC(=O)C[C@@H](C)[C@H]1CC[C@H]2[C@@H]3[C@H](O)C[C@@H]4CC(=O)CC[C@]4(C)[C@H]3CC[C@]12C)c1ccc(Br)s1
256

Consider the record given below.
Briefly, MIC measured for CC(=O)O[C@@H]1CC2=CC(=O)CC[C@]2(C)[C@H]2CC[C@]3(C)[C@@H]([C@H](C)CC(=O)N[C@@H](c4ccc(Br)s4)C(C)C)CC[C@H]3[C@H]12 : 0.5
